The reported measurements were obtained from patent US6818749.

The following binders are shown together with reported percent of complexes values.
# assayed-system: anti-CC49 variable region (anti-idiotypic) antibodies in the serum of patient six
# test: HPLC size exclusion; 5 µg cold competitor + ^125I-HuCC49 + patient serum; less complex = more competition

{"binder": "humanized monoclonal antibody HuCC49 (parental HuCC49) (antibody, V domains shown) VH: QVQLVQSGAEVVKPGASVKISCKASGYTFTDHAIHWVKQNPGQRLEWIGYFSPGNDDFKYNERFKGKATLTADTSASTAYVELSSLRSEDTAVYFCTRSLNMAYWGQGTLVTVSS VL: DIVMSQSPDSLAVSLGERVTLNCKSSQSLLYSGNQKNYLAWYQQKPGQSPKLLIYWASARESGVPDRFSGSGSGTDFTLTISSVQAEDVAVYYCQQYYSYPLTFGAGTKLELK", "readout-unit": "%", "percent of complexes": 0}
{"binder": "HuCC49 CDR variant L-2 (antibody, V domains shown) VH: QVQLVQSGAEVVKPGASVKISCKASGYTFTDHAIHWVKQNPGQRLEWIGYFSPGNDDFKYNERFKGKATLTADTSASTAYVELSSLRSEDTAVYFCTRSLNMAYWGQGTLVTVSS VL: DIVMSQSPDSLAVSLGERVTLNCKSSQSLLYSGNQKNYLAWYQQKPGQSPKLLIYWASTRESGVPDRFSGSGSGTDFTLTISSVQAEDVAVYYCQQYYSYPLTFGAGTKLELK", "readout-unit": "%", "percent of complexes": 2.7}
{"binder": "HuCC49 CDR variant L-3 (antibody, V domains shown) VH: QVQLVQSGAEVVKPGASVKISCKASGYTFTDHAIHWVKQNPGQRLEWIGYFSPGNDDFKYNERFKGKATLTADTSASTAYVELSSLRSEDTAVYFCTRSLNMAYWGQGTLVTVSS VL: DIVMSQSPDSLAVSLGERVTLNCKSSQSLLYSGNQKNYLAWYQQKPGQSPKLLIYWASARESGVPDRFSGSGSGTDFTLTISSVQAEDVAVYYCQQYYSTPYSFGAGTKLELK", "readout-unit": "%", "percent of complexes": 34.8}
